- Tested on: HT29 colon
- test.method.notes: NCI-60 one-dose screen, 48 h (100 = growth as untreated, 0 = no growth, -100 = all killed)
- condition.summary: 10 µM unless noted
- Method: Growth inhibition of the HT29 human tumor cell line is measured as a screen for anti-cancer activity. Cells are grown in 96 well plates and exposed to the test compound for 48 hours. Compounds are tested at a single concentration, which is 10^-5 M for most compounds. The reported endpoint is percent growth (GI% or GIPRCNT), where numbers from 0 - 100% represent growth inhibition, and numbers from -100% - 0 represent cell death. For example, a value of 40 represents 60% growth inhibition. […]
The panel holds about 83,000 compounds, 20% with a hit somewhere; the sample as a whole holds those more often.
Label True when growth < 20%; otherwise False.

Input: In plain terms, does Cc1c2ccccc2nc2c1ccc1cccnc12 come in under 20% for growth?
Output: False

Input: Now give it for O=C1N[C@@H]2[C@@H](O)[C@@H](O)[C@H](O)C[C@H]2c2cc3c(c(O)c21)OCCO3 too.
Output: True

Input: Now give it for CCCCn1sc(=O)n(Cc2ccc(CNC(=O)OCc3ccc4c(Cl)cc(Cl)c(O)c4n3)cc2)c1=O too.
Output: False

Input: Now give it for O=C(O)CCCc1cnc2c3sccc3nc(SCc3c(Cl)cccc3Cl)n12 too.
Output: True

Input: Now give it for O=P(O)(O)OCC1OC(n2cnc3c(NCc4ccccc4)ncnc32)C(O)C1O (stereo not given) too.
Output: False

---

- Tested on: U251 CNS
- test.method.notes: NCI-60 one-dose screen, 48 h (100 = growth as untreated, 0 = no growth, -100 = all killed)
- condition.summary: 10 µM unless noted
About 83,000 compounds went through this panel and 20% of them were active in at least one assay; those are over-represented in the sample as a whole.
measured.metric: growth (%)
Expressed in %, but write only the number.

Input: Any idea what growth was measured for CN(C)c1ccc(C(=NO)c2ccc(N(C)C)cc2)cc1 ?
Output: 28.1

Input: Now give it for Cc1ccc2nc(Cl)c(Cn3nnnc3SCc3ccccc3)cc2c1 too.
Output: 95.8

Input: Now give it for CN1CCN(Cc2ccc(NC(=O)c3cncc(C#Cc4cnn5ccccc45)c3)cc2C(F)(F)F)CC1 too.
Output: 7.18

Input: Now give it for Fc1ccc(COc2ccc(Nc3ncnc4sc5c(c34)CCCC5)cc2)cc1 too.
Output: 90.8

Input: Now give it for CCCC(O)Cn1ncc(C(=O)OCC)c1NC(=O)NCc1cccc(F)c1 (stereo not given) too.
Output: 101

---

- System: SN12C renal
- test.method.notes: NCI-60 one-dose screen, 48 h (100 = growth as untreated, 0 = no growth, -100 = all killed)
- condition.summary: 10 µM unless noted
This is part of a sample that, as a whole, favours compounds with a hit. Of some 83,000 tested, about 20% had one in any assay.
measured.metric: growth (%)
Expressed in %, but write only the number.

Input: Any idea what growth was measured for CC[C@H](Nc1nc(N)nc(C)c1C#N)c1nc2cccc(NCCCCCC(=O)NO)c2c(=O)n1-c1ccccc1 ?
Output: 46.3

Input: Now give it for O=C1NC(=Nc2ccc(O)cc2)S/C1=C\c1cccs1 too.
Output: 46.1

Input: Now give it for COc1ccc(C2=C/C(=C\c3ccc(Cl)cc3)C(=O)N2/N=C/c2ccc(Cl)cc2)cc1 too.
Output: 87.7

Input: Now give it for COc1ccc2nc3ccccc3c(NCc3ccccc3)c2c1 too.
Output: 22.4

Input: Now give it for CCOC(=O)C1=C(c2ccccc2)N=c2s/c(=C/c3ccc(Br)cc3)c(=O)n2C1c1ccc(O)cc1 (centres undefined) too.
Output: 85.2

Input: Now give it for O=C(N/N=C/c1ccc(Cl)cc1Cl)c1ccc2nc(-c3ccc(Cl)cc3)[nH]c2c1 too.
Output: -36.9

Input: Now give it for COc1cc2cc(NCc3ccc(OC(F)F)cc3)nc(C)c2cc1OC too.
Output: 62.6

Input: Now give it for Nc1c(C(=O)Nc2ccccn2)sc2nc3c(cc12)C(O)CCC3 (centres undefined) too.
Output: 44.3

Input: Now give it for COc1ccc(C(O)c2cc3c(N)c(C(=O)Nc4cccc(Cl)c4)sc3nc2C)cc1 (centres undefined) too.
Output: 22.2

Input: Now give it for CCN(CC)CCOc1ccc(Nc2ncc3cc(-c4ccc(O)cc4)c(=O)n(C)c3n2)cc1 too.
Output: 39.9

Input: Now give it for CCOC(=O)c1c2c(n3c1NCC3)-c1ccccc1C2=O too.
Output: 98.3

Input: Now give it for COc1ccc(/C=C/C(=O)c2cc3c(N)c(C(=O)Nc4ccc(OC)cc4)sc3nc2C)cc1 too.
Output: 31.6

Input: Now give it for CCOC(=O)NN1CC(O)=C(c2nc(-c3ccc(Br)cc3)cs2)C1=N too.
Output: 161

Input: Now give it for O=C(N/N=C/c1ccc(O)cc1O)c1ccc(Nc2ccnc(C(F)(F)F)c2)cc1 too.
Output: 38.5

Input: Now give it for CN1CCN(Cc2ccc(NC(=O)c3cncc(C#Cc4cncc5[nH]ncc45)c3)cc2C(F)(F)F)CC1 too.
Output: 8.48

Input: Now give it for C=C1C(=O)O[C@H]2[C@H]1CC/C(COC(=O)NCCCCCCCCNC(=O)OC/C1=C/CC[C@@]3(C)O[C@H]3[C@H]3OC(=O)C(=C)[C@@H]3CC1)=C\CC[C@@]1(C)O[C@@H]21 too.
Output: -68.7

Input: Now give it for O=C(Nc1nc(C(=O)N2CCN(C(c3ccccc3)c3ccccc3)CC2)cs1)c1ccc(NC2CCCCC2)c([N+](=O)[O-])c1 too.
Output: 85.6

Input: Now give it for C#CCOc1ccc2ncnc(Nc3cccc(NC(=O)CCl)c3)c2c1 too.
Output: 69.4

Input: Now give it for Nc1ncnc2c1c(-c1ccc(Oc3ccccc3)cc1)nn2CC1SSCC1O (centres undefined) too.
Output: 49.1

---

- Tested on: A549/ATCC NSCLC
- test.method.notes: NCI-60 one-dose screen, 48 h (100 = growth as untreated, 0 = no growth, -100 = all killed)
- condition.summary: 10 µM unless noted
Compounds without any hit were thinned out: in the full panel of roughly 83,000, 20% have a hit. Calls of active or inactive are those of the source. How the source made its calls: active means growth percent below 10; inactive means the rest.
measured.metric: growth

Input: Enter reported growth observed with A549/ATCC NSCLC for CC[C@H](CC[C@@H](C)[C@H]1CC[C@H]2[C@@H]3CC[C@@H]4CC(=O)/C(=C\c5ccncc5)C[C@]4(C)[C@H]3CC[C@]12C)C(C)C
Output: 99.2% (inactive)

Input: Now give it for O=C1c2cc3c(cc2-c2c1c1ccc(Cl)cc1c(=O)n2C[C@H](O)CO)OCO3 too.
Output: -18.6% (active)

Input: Now give it for O=C(Nc1ccccc1O)c1ccccc1Nc1ccnc(C(F)(F)F)c1 too.
Output: 114% (inactive)

Input: Now give it for CN(Cc1cnc2nc(N)nc(N)c2n1)c1c(Cl)cc(C(=O)NC(CCC(=O)O)C(=O)O)cc1Cl (stereo not given) too.
Output: 15.6% (inactive)

Input: Now give it for O=C1/C(=C/c2ccc(C(F)(F)F)cc2)COc2ccc(O)c(O)c21 too.
Output: 54.2% (inactive)

---

- System: BT-549 breast
- test.method.notes: NCI-60 one-dose screen, 48 h (100 = growth as untreated, 0 = no growth, -100 = all killed)
- condition.summary: 10 µM unless noted
About 83,000 compounds went through this panel and 20% of them were active in at least one assay; those are over-represented in the sample as a whole. Active and inactive are the calls of the source. Rule for the calls: active = growth percent below 10; inactive = the rest.
measured.metric: growth

Input: Any idea what growth was measured for CC(C)c1ccc(C(=O)Nc2sc3cc(O)ccc3c2C#N)cc1 ?
Output: 20.8% (inactive)

Input: Now give it for COc1ccc(C2=NN(C(=O)c3cc(OC)c(OC)c(OC)c3)C(c3ccc(N(C)C)cc3)C2)cc1 (stereo not given) too.
Output: 28.4% (inactive)

Input: Now give it for Cc1cccc(NC(=O)CSc2nc3ccc([N+](=O)[O-])cc3[nH]2)c1 too.
Output: 100% (inactive)

Input: Now give it for COc1ccc(C(c2cc(OC)c(OC)c(OC)c2)N2CCN(Cc3ccccc3)CC2)cc1 (stereo not given) too.
Output: 92.4% (inactive)

Input: Now give it for C=CC1(C)C(O[Si](C)(C)C(C)(C)C)CC2C3OC(=O)NC31c1cccc3c1[C@H](C(=O)N3C)C2(C)C (stereo not given in full) too.
Output: 53.8% (inactive)

Input: Now give it for CC(C)CN1CC(C(=O)Nc2ccc3c(c2)-c2ccccc2C3)CC1=O (stereo not given) too.
Output: 65% [50 µM] (inactive)

Input: Now give it for COc1ccc(C(C)=O)cc1S(N)(=O)=O too.
Output: 95.6% (inactive)

Input: Now give it for N=c1c2c(=N)n3c(nc2nc2n1-c1ccccc1Sc1ccccc1-2)sc1cc(Cl)ccc13 too.
Output: 42.2% (inactive)

Input: Now give it for COc1ccc(C2C3=C(COC3=O)N(CCO)c3cc4c(cc32)OCCO4)cc1OC (stereo not given) too.
Output: 53.9% (inactive)

Input: Now give it for COc1cc(-c2nc3ccc(C)cc3[nH]2)ccc1OCC(=O)N=Nc1c(O)[nH]c2ccc(Cl)cc12 too.
Output: 68.5% (inactive)
